- testMethodNotes: basal S. cerevisiae growth modulation, no modifier, primary screen, OD600, strain BY4716, 24 h, basal condition (AID 1173)
- measurementContext: OD600, 24 h, higher = more signal, called active from +8 up or from −8 down
endpointName: z-score
Write the value as a bare number.

Query string: Write down z-score measured for item "CC(=O)OC[C@H]1O[C@H](C#CCC2CCCCC2)C=C[C@@H]1OC(C)=O"
Result string: -3.69

Query string: Write down z-score measured for item "C[C@H]1CC[C@H]2C(=O)N[C@H](Cc3ccccc3)C(=O)N2[C@@H]1c1ccccc1"
Result string: -0.512

Query string: Write down z-score measured for item CCOC(=O)[C@H](CC(C)C)NC(=O)CCC1CC(OC(=O)NCCc2ccc(F)cc2)CC2(CCCC(COC(=O)NCCOC)O2)O1 (stereo not given in full)
Result string: 1.02

Query string: Write down z-score measured for item "COc1ccc(-c2cnnc(CCCn3ccnc3-c3ccccc3)n2)cc1"
Result string: -0.72

Query string: Write down z-score measured for item "COC(=O)[C@@H]1CC[C@H](C)[C@@H](c2ccc(Br)cc2)N1C(=O)C(F)(F)F"
Result string: -0.475

Query string: Write down z-score measured for item C[C@@H]1CC[C@H]2C(=O)OC(Cc3ccccc3)CN2[C@H]1c1ccc(Br)cc1 (stereo not given in full)
Result string: -3.48

Query string: Write down z-score measured for item COC(=O)[C@H](C)NC(=O)CCC1CC(OC(=O)NCCc2ccc(F)cc2)CC2(CCCC(COC(=O)NCCOc3ccccc3)O2)O1 (stereo not given in full)
Result string: 0.338

Query string: Write down z-score measured for item CCC1=NOC(CCC2CC(OC(=O)NCc3cccc4c3OCO4)CC3(CCCC(COC(=O)NCCc4ccc(Cl)cc4)O3)O2)C1 (stereo not given)
Result string: 0.519

Query string: Write down z-score measured for item "CC(=O)OC[C@H]1O[C@H](CC=NO[C@H](C)c2cn([C@@H]3COC[C@H]3O)nn2)C=C[C@@H]1OC(C)=O"
Result string: -0.199

Query string: Write down z-score measured for item "CCN1C(=O)[C@H]2[C@H]3[C@H](O)[C@H](O)CC(=NOCC=C(C)CCC=C(C)C)[C@@H]3CC[C@H]2C1=O"
Result string: -6.59

Query string: Write down z-score measured for item "C=CC[C@@H]1C=C[C@H](ON=C2C[C@@H](O)[C@@H](O)[C@@H]3[C@@H]4C(=O)N(CC)C(=O)[C@@H]4CC[C@@H]23)[C@@H](CO)O1"
Result string: -0.099

Query string: Write down z-score measured for item "COC(=O)[C@@H]1CC[C@H](C)[C@@H](c2ccc(C)cc2)N1C(=O)c1ccc(C=NO[C@@H](C)c2cc(-c3c(C)cc(C)cc3C)no2)cc1"
Result string: 1.36

Query string: Write down z-score measured for item "CC(C)CON=C1[C@H]2CCn3c(=O)n(C)c(=O)n3[C@H]2[C@H](O)[C@@H]2O[C@H]12"
Result string: 0.0789

Query string: Write down z-score measured for item CCOC(=O)[C@H](CC(C)C)NC(=O)CCC1CC(OC(=O)NCCc2ccc(F)cc2)CC2(CCCC(COC(=O)NCc3cccc(C(F)(F)F)c3)O2)O1 (stereo not given in full)
Result string: 0.924

Query string: Write down z-score measured for item "COc1ccc(COC(=O)NN=C2C[C@@H](O)[C@@H](O)[C@@H]3[C@@H]4C(=O)N(Cc5ccc6c(c5)OCO6)C(=O)[C@@H]4CC[C@H]23)cc1"
Result string: 0.321

====

Could you please report measured composite z-score for the items listed next?
- testMethodNotes: small-molecule microarray binders of probe aWnt5a, primary screen, biochemical, biotinylated probe, 635/667 nm fluorescence (AID 1113);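 note: score merges 667 nm fluorescence intensity with signal-to-noise per printed feature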
- measurementContext: higher = more signal
Write the value as a bare number.

Query string: Write down composite z-score measured for item "CC(=O)OC[C@H]1O[C@@H](ON=C2[C@H]3CCn4c(=O)n(-c5ccccc5)c(=O)n4[C@H]3[C@H](O)[C@@H]3O[C@H]23)[C@H](OC(C)=O)[C@@H](OC(C)=O)[C@@H]1OC(C)=O"
Result string: -0.101

Query string: Write down composite z-score measured for item "CON=C1c2cc(OC)ccc2O[C@H](c2cccc(OC)c2)[C@H]1O"
Result string: -0.0165

Query string: Write down composite z-score measured for item "CC(C)(C)N1C(=O)[C@H]2[C@H]3[C@H](O)[C@H](O)CC(=NOC[C@@H](O)COCc4ccco4)[C@H]3CC[C@H]2C1=O"
Result string: -0.147

Query string: Write down composite z-score measured for item "CCOC(=O)CCN1C(=O)[C@H]2[C@H]3[C@H](O)[C@H](O)CC(=NOCC=C(C)CCC=C(C)C)[C@H]3CC[C@H]2C1=O"
Result string: -0.103

Query string: Write down composite z-score measured for item O=C(NCCC[N+]1=CC=NC1c1ccccc1)N1CCCc2nc(-c3ccc(Br)cc3)ccc21 (configuration not stated)
Result string: -0.0145

Query string: Write down composite z-score measured for item "CCN1C(=O)[C@H]2[C@H]3[C@H](O)[C@H](O)CC(=NNC(=O)OCc4ccccc4)[C@H]3CC[C@H]2C1=O"
Result string: -0.0459

Query string: Write down composite z-score measured for item "CC(C)CON=C1C[C@@H](O)[C@@H](O)[C@@H]2[C@@H]3C(=O)N(c4ccc(F)cc4F)C(=O)[C@@H]3CC[C@@H]12"
Result string: -0.0368

====

- experimentalSystem: Streptavidin (Streptomyces avidinii)
- testMethodNotes: streptavidin binders on small-molecule microarray, primary screen, artefact control for SMM compound annotation, biophysical, 635/667 nm fluorescence (AID 1147);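 note: signal reflects streptavidin binding to arrayed compounds as a control protein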
- measurementContext: streptavidin binding, higher = more signal
# binarize composite z-score: threshold -0.2 inclusive, high side True, low side False

Query string: API: above_or_equal(metric=composite z-score, cutoff=-0.2) for item COC(=O)[C@H](C)NC(=O)CCC1CC(OC(=O)NCc2cccc3ccccc23)CC2(CCCC(COC(=O)NCCc3ccccc3OC)O2)O1 (stereo not given in full)
Result string: True

Query string: API: above_or_equal(metric=composite z-score, cutoff=-0.2) for item "O=C1C2=CC[C@H]3C(=O)N(C[C@@H]4CCCO4)C(=O)[C@H]3[C@H]2[C@H](O)[C@@H]2O[C@H]12"
Result string: True

Query string: API: above_or_equal(metric=composite z-score, cutoff=-0.2) for item "COc1ccc2c(c1)O[C@@H](c1cccc(C(F)(F)F)c1)[C@H](O)C2=O"
Result string: True

Query string: API: above_or_equal(metric=composite z-score, cutoff=-0.2) for item CCOC(=O)[C@H](CC(C)C)NC(=O)CCC1CC(OC(=O)NCCc2ccc(F)cc2)CC2(CCCC(COC(=O)NCc3cccc4ccccc34)O2)O1 (stereo not given in full)
Result string: True

Query string: API: above_or_equal(metric=composite z-score, cutoff=-0.2) for item CO[C@@H](C(C)C)[C@@H](C)C1OC(=O)CC1O (stereo not given in full)
Result string: False

Query string: API: above_or_equal(metric=composite z-score, cutoff=-0.2) for item "COc1ccc(O[C@H]2C=C[C@@H](c3ccccc3)O[C@@H]2COC(=O)CCC(C)=NOC[C@@H](O)COCc2ccco2)cc1"
Result string: False

Query string: API: above_or_equal(metric=composite z-score, cutoff=-0.2) for item "COc1ccc(O[C@H]2C=C[C@@H](c3ccccc3)O[C@@H]2CON=C2c3cc(OC)ccc3O[C@H](c3cccc(OC)c3)[C@H]2O)cc1"
Result string: True

Query string: API: above_or_equal(metric=composite z-score, cutoff=-0.2) for item "COC(=O)CC=C[C@@H](C)[C@@H](C=NOC[C@@H](O)COCc1ccco1)NS(=O)(=O)c1ccc(C)cc1"
Result string: False

Query string: API: above_or_equal(metric=composite z-score, cutoff=-0.2) for item CCOC(=O)[C@H](CC(C)C)NC(=O)CCC1CC(OC(=O)NCc2ccc3c(c2)OCO3)CC2(CCCC(COC(=O)NCc3ccccc3)O2)O1 (stereo not given in full)
Result string: True

Query string: API: above_or_equal(metric=composite z-score, cutoff=-0.2) for item "COC(=O)CC=C[C@@H](C)[C@@H](C=NOC[C@@H](C)[C@H](OCc1ccccc1)C(C)C)NS(=O)(=O)c1ccc(C)cc1"
Result string: False

Query string: API: above_or_equal(metric=composite z-score, cutoff=-0.2) for item "O=C1[C@H]2[C@H]3[C@H](O)[C@H](O)CC(=NO[C@@H]4O[C@H](CO)[C@@H](O)[C@H](O)[C@H]4O)[C@@H]3CC[C@H]2C(=O)N1c1cccc(Oc2ccccc2)c1"
Result string: True

Query string: API: above_or_equal(metric=composite z-score, cutoff=-0.2) for item "CC(=O)OC[C@H]1O[C@H](C#CCC2CCCCC2)C=C[C@@H]1OC(C)=O"
Result string: True

Query string: API: above_or_equal(metric=composite z-score, cutoff=-0.2) for item "COc1ccc(COC(=O)NN=C2C[C@@H](O)[C@@H](O)[C@@H]3[C@@H]4C(=O)N(C[C@@H]5CCCO5)C(=O)[C@@H]4CC[C@@H]23)cc1"
Result string: True

Query string: API: above_or_equal(metric=composite z-score, cutoff=-0.2) for item "CC#CCOCCC=C1c2ccccc2[C@@H](OC)[C@@H]1C"
Result string: False

Query string: API: above_or_equal(metric=composite z-score, cutoff=-0.2) for item "COC(OC)[C@@H](C)[C@H](OC)[C@@H](C)[C@H](OC)c1ccccc1"
Result string: False
